Published pIC50 for 3-phosphoinositide-dependent protein kinase 1 (Homo sapiens), assembled from different documents, is shown next.
pIC50: −log10 of the molar value.

Examples with answers:
{"columns": ["COMPOUND", "MEASURED ON", "OBSERVED VALUE"],
 "data": [
  ["NC(=O)c1cnc(N[C@H]2CCCNC2)c2cc(-c3ccc(Cl)cc3)sc12", "3-phosphoinositide-dependent protein kinase 1 (Homo sapiens)", 6.80],
  ["CSc1nc(N)nc(N[C@@H](CN(C)C)C(=O)Nc2cccc(C(F)(F)F)c2)c1C#N", "3-phosphoinositide-dependent protein kinase 1 (Homo sapiens)", "< 5.70"],
  ["Cn1cc(-c2cnc3[nH]cc(-c4cc([C@](C)(O)c5ccccc5F)nc(N)n4)c3n2)cn1 (single isomer, unassigned)", "3-phosphoinositide-dependent protein kinase 1 (Homo sapiens)", 7.33],
  ["CSc1nc(N)nc(SCC(=O)Nc2cccc(C(F)(F)F)n2)c1C#N", "3-phosphoinositide-dependent protein kinase 1 (Homo sapiens)", "< 5.70"],
  ["COc1cc2c(cc1N(C)CCCN(C)C)ncc1c(N)nc3c(C)c(N)ccc3c12", "3-phosphoinositide-dependent protein kinase 1 (Homo sapiens)", 5.99]
]}

Query block: Field request: pIC50 | item: `COc1cc2c(cc1NCCCN1CCN(C)CC1)ncc1c(N)nc3c(C)c(N)ccc3c12`
Result block: 6.26

Query block: Then this compound: `C#Cc1cc2cnc(Nc3cccc(-c4nnn[nH]4)c3)nc2cc1OC`
Result block: > 5.30

Query block: Now this one: `C#Cc1cc(OC)c2nc(Nc3ccc(N4CCOCC4)cc3)ncc2c1`
Result block: > 5.30
